meta.source: patent US20200255503A1

target: natural Fel d1 (cat (Felis domesticus)) (UniProt P30438); assay: SPR, mAb captured, nFel d1 injected, 25 C
// values below are reported Kd
quantityMeasured: Kd (pM)

binder	quantityMeasured	observedValue
H4H2608B (antibody, human IgG4, V domains shown) VH: EVQLVESGGGLVKPGGSLRLSCAASGFTFSDYYMNWIRQAPGKGLEWISYISSSDDTTYYADSVKGRFTISRDNAKNSLYLQMNSLRAEDTAVYYCARDGKYNTVAGDHWGQGTLVTVSS VL: EIVMTQSPDFQSVAPKEKVTITCRASQNIGSSLHWYQQKPDQSPKLLIKYASQSFSGVPSRFSGSGSGTDFTLTINSLEAEDAATYYCLQSYTLRTFGQGTKVEIKR	Kd	2050
H2M1237N (antibody, mouse IgG2, V domains shown) VH: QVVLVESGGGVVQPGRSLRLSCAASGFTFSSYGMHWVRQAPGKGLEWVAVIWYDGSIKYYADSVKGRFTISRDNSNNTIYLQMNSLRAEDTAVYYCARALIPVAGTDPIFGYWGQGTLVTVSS VL: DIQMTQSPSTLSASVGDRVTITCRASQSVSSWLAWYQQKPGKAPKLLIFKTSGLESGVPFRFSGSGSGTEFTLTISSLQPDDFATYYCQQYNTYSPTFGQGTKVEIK	Kd	982
H4H2606B (antibody, human IgG4, V domains shown) VH: EVQLVESGGGLVKPGGSLRLSCAASGFTFSDYYMNWIRQAPGKGLEWVSYISSSGNSIYYADSVKGRFTISRDNAKNSLFLQMSSLRAEDTAVYYCARDGRYNDRRRGYYWGQGTLVTVSS VL: EIVMTQSPDFQSVTPKEKVTITCRASQSIGSSLHWYQQKPDQSPKLLIKYASQSFSGVPSRFSGSGSGTDFTLTINSLEAEDAATYYCLQSSSLRTFGQGTKVEIKR	Kd	765
